All values here come from patent US9040523B2.

target: CYP3A4 (Homo sapiens, UniProt P08684); assay: Cytochrome P450 inhibition, Protocol A, cDNA expressed proteins, fluorogenic substrates; assay type: in vitro ADME; conditions: % inhibition at 10 μM; substrate DBF; cDNA expressed protein
Sequence (P08684 whole entry): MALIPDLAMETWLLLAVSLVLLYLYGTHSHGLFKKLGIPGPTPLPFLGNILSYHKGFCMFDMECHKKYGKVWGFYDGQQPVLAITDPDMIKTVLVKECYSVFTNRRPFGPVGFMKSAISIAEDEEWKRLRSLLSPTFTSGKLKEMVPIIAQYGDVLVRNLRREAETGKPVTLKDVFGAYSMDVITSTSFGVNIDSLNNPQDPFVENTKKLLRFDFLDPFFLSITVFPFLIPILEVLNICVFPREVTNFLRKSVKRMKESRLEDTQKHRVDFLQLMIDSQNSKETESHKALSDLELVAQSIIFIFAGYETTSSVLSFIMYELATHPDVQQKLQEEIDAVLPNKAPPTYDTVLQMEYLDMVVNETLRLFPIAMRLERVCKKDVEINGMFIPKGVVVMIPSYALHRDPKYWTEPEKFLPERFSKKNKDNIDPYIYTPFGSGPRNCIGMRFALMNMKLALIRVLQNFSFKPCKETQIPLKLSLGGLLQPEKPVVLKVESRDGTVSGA
What hCYP3A4_DBF_Pct_Inh was measured for each of the following?
Numbers only, in %.

Worked set:
| compound | hCYP3A4_DBF_Pct_Inh [%] |
| --- | --- |
| CC(=O)c1ccc(C2=NCc3c(Cl)cccc3-n3cccc32)cc1 [drawing 88] | 21 |
| CC(=O)c1ccc(C2NCc3c(Cl)cccc3-n3cccc32)cc1.Cl (stereo not shown) | 70 |
| CCc1ccc(C2NCc3c(Cl)cccc3-n3cccc32)cc1.Cl (stereo not shown) | 69 |

Please state hCYP3A4_DBF_Pct_Inh for every compound in the list that follows.
1. CC(=O)c1ccc(C2=NCc3c(F)cc(F)cc3-n3cccc32)cc1
2. CC(=O)c1ccc(C2=NCc3c(F)cccc3-n3cccc32)cc1
3. CCc1ccc(C2=NCc3ccc(Cl)cc3-n3cccc32)cc1
4. CC(=O)c1ccc(C2=NCc3cccc(Cl)c3-n3cccc32)cc1
5. CC(=O)c1cccc(C2=NCc3c(Cl)cccc3-n3cccc32)c1

1. 3
2. 5
3. 70
4. 16
5. 64

Below are some compounds; for each one, tell me its hCYP3A4_DBF_Pct_Inh.
1. CS(=O)(=O)c1ccc(C2=NCc3c(Cl)cccc3-n3cccc32)cc1 [drawing 90]
2. CC(=O)c1ccc(C2=NCc3c(Cl)ccc(Cl)c3-n3cccc32)cc1

[1, 21]
